- system: FBXL10 (KDM2B) (Homo sapiens, UniProt Q8NHM5)
- Construct: 1-650; purchased BPS, Bioscience, US; host or cells: Bac (baculovirus)
- Sequence (Q8NHM5 1-650): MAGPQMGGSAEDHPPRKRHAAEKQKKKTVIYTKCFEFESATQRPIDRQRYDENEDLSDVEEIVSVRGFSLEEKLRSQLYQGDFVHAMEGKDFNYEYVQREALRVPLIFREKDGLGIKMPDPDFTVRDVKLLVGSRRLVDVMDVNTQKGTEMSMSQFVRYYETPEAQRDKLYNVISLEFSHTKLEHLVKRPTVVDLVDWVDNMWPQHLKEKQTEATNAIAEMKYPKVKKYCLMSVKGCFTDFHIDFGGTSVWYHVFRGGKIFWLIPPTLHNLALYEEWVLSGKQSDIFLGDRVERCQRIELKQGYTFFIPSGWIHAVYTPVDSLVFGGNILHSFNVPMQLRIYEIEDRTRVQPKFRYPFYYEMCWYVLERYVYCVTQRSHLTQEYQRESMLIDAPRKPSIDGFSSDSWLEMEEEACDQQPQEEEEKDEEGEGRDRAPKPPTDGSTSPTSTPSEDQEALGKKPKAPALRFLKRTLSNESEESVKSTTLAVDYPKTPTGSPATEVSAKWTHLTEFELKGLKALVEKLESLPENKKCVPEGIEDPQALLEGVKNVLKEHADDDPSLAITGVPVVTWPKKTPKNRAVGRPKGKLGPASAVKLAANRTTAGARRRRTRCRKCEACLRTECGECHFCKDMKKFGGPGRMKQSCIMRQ
- assayOverview: Histone lysine demethylase AlphaLISA assay, FBXL10
- Assay type: biochemical
- experimentalContext: substrate BH3K36M2
pIC50: −log10 of the molar value.
Listed here are compounds together with their documented pIC50.

A selection of reference data follows.
CCN(CCN(C)C)C(=O)CNCc1cc(C(=O)OCC(F)F)ccn1 ≤ 6.00
CN(CCCCN(Cc1ccccc1)C1CC1)C(=O)CNCc1cc(C(=O)O)ccn1 > 7.00
CCCN(CC(=O)N1CCCCC1)Cc1cc(C(=O)O)ccn1 6.00 to 7.00

pIC50 reported for this compound CCN(CCN(C)C)C(=O)CNCc1cc(C(=O)O)ccn1 : 6.00 to 7.00

pIC50 reported for this compound CCN(CCN(C)C)C(=O)CNCc1cc(C(=O)OCC(F)(F)F)ccn1 : ≤ 6.00
